System: Leishmania donovani
Test Description: Antileishmanial activity against miltefosine resistant Leishmania donovani HU3MILR40 promastigotes […] assessed as inhibition of parasite growth incubated for 72 hrs by automatic microtiter plate reader analysis
Assay type: functional, organism-based
pIC50: −log10 of the molar value.

Compound: Cn1c([N+](=O)[O-])cnc1CCc1ccc(S(C)(=N)=O)cc1 (stereo not given)
System Tested: Leishmania donovani
Result Operator: <
pIC50: 4.70
//
Compound: CSc1ccc(NC(=O)c2ncc([N+](=O)[O-])n2C)cc1
System Tested: Leishmania donovani
Result Operator: <
pIC50: 4.70
//
Compound: Cn1c([N+](=O)[O-])cnc1COc1ccc(S(C)(=N)=O)cc1 (stereo not given)
System Tested: Leishmania donovani
Result Operator: =
pIC50: 4.91
//
Compound: CSc1ccc(CCc2ncc([N+](=O)[O-])n2C)cc1
System Tested: Leishmania donovani
Result Operator: =
pIC50: 5.15
//
Compound: CSc1ccc(NC(=O)c2ncc([N+](=O)[O-])[nH]2)cc1
System Tested: Leishmania donovani
Result Operator: <
pIC50: 4.86
//
Compound: CSc1ccc(OCc2ncc([N+](=O)[O-])n2C)cc1
System Tested: Leishmania donovani
Result Operator: =
pIC50: 5.26
//
Compound: Cn1c([N+](=O)[O-])cnc1COc1ccc([S+](C)[O-])cc1 (stereo not given) [FEXINIDAZOLE SULFOXIDE]
System Tested: Leishmania donovani
Result Operator: =
pIC50: 5.37
//
Compound: Cn1c([N+](=O)[O-])cnc1C(=O)Nc1ccc(F)cc1C(F)(F)F
System Tested: Leishmania donovani
Result Operator: =
pIC50: 4.91
//
Compound: CSc1ccc(OC[C@H]2Cn3cc([N+](=O)[O-])nc3O2)cc1
System Tested: Leishmania donovani
Result Operator: =
pIC50: 6.40
//
Compound: Cn1c([N+](=O)[O-])cnc1C(=O)N1CCS(=O)(=O)CC1
System Tested: Leishmania donovani
Result Operator: =
pIC50: 4.86
//
Compound: CSc1ccc(OC[C@@H]2Cn3cc([N+](=O)[O-])nc3O2)cc1
System Tested: Leishmania donovani
Result Operator: =
pIC50: 6.30
//
Compound: CS(=O)(=O)c1ccc(OCC2Cn3cc([N+](=O)[O-])nc3O2)cc1 (stereo not given)
System Tested: Leishmania donovani
Result Operator: =
pIC50: 5.35
//
Compound: CSc1ccc(NCc2ncc([N+](=O)[O-])n2C)cc1
System Tested: Leishmania donovani
Result Operator: =
pIC50: 4.92
//
Compound: C[S+]([O-])c1ccc(C(=O)Nc2ccc3c(c2)B(O)OC3(C)C)cc1 (stereo not given)
System Tested: Leishmania donovani
Result Operator: <
pIC50: 4.70
//
Compound: Cn1c([N+](=O)[O-])cnc1COc1ccc(S(C)(=O)=O)cc1
System Tested: Leishmania donovani
Result Operator: =
pIC50: 5.25
//
Compound: CSc1ccc(OCc2ncc(C#N)n2C)cc1
System Tested: Leishmania donovani
Result Operator: <
pIC50: 4.70
//
Compound: CCCCCCCCCCCCCCCCOP(=O)([O-])OCC[N+](C)(C)C
System Tested: Leishmania donovani
Result Operator: <
pIC50: 4.40
//
Compound: CSc1ccc(Cn2ccn3cc([N+](=O)[O-])nc3c2=O)cc1
System Tested: Leishmania donovani
Result Operator: <
pIC50: 4.70
//
Compound: COc1ccc(Cn2ccn3cc([N+](=O)[O-])nc3c2=O)cc1
System Tested: Leishmania donovani
Result Operator: <
pIC50: 4.73
//
Compound: CSc1ccc(C(=O)Nc2ccc3c(c2)B(O)OC3(C)C)cc1
System Tested: Leishmania donovani
Result Operator: =
pIC50: 4.81
//
Compound: CCc1ccc(OCc2ncc([N+](=O)[O-])n2C)cc1
System Tested: Leishmania donovani
Result Operator: =
pIC50: 5.28
//
Compound: C[S+]([O-])c1ccc(OCC2Cn3cc([N+](=O)[O-])nc3O2)cc1 (racemic)
System Tested: Leishmania donovani
Result Operator: =
pIC50: 5.15
//
Compound: CSc1ccc(OCc2nccn2C)cc1
System Tested: Leishmania donovani
Result Operator: <
pIC50: 4.70
//
Compound: CSc1ccc(CCc2ncc([N+](=O)[O-])n2CCO)cc1
System Tested: Leishmania donovani
Result Operator: <
pIC50: 4.70
//
Compound: CSc1ccc(OCC2Cn3cc([N+](=O)[O-])nc3O2)cc1 (racemic)
System Tested: Leishmania donovani
Result Operator: =
pIC50: 6.40

###

Recorded remaining at 32 min, 20 µM values for a group of molecules are listed next.
Test Description: Metabolic stability in rat liver microsome assessed as compound remaining at 20 uM measured after 32 mins in presence of NADP and GSH by HPLC analysis
Assay type: ADME
Run Conditions: liver microsomes, read-out: Stability

Molecule: Cn1c([N+](=O)[O-])cnc1C(=O)Nc1ccc(F)cc1C(F)(F)F
remaining at 32 min, 20 µM: 100%
//
Molecule: Cn1c([N+](=O)[O-])cnc1COc1ccc(S(C)(=N)=O)cc1 (stereo not given)
remaining at 32 min, 20 µM: 100%
//
Molecule: Cn1c([N+](=O)[O-])cnc1COc1ccc(S(C)(=O)=O)cc1
remaining at 32 min, 20 µM: 100%
//
Molecule: CSc1ccc(OCc2nccn2C)cc1
remaining at 32 min, 20 µM: 100%
//
Molecule: CSc1ccc(OC[C@@H]2Cn3cc([N+](=O)[O-])nc3O2)cc1
remaining at 32 min, 20 µM: 67.5%

###

Test system: Leishmania braziliensis
Test Description: Antileishmanial activity against wild type Leishmania braziliensis UA847 promastigotes […] assessed as inhibition of parasite growth incubated for 72 hrs by automatic microtiter plate reader analysis
Assay type: functional, organism-based
pIC50: −log10 of the molar value.
Recorded pIC50 values for a group of compounds are listed next.
Measurement Name: pIC50

Compound: Cn1c([N+](=O)[O-])cnc1C(=O)Nc1ccc(F)cc1C(F)(F)F
Measurement Name: pIC50
Result Operator: =
Reported: 5.64
--
Compound: CSc1ccc(Cn2ccn3cc([N+](=O)[O-])nc3c2=O)cc1
Measurement Name: pIC50
Result Operator: <
Reported: 4.70
--
Compound: Cn1c([N+](=O)[O-])cnc1COc1ccc([S+](C)[O-])cc1 (stereo not given) [FEXINIDAZOLE SULFOXIDE]
Measurement Name: pIC50
Result Operator: =
Reported: 5.37
--
Compound: CSc1ccc(C(=O)Nc2ccc3c(c2)B(O)OC3(C)C)cc1
Measurement Name: pIC50
Result Operator: =
Reported: 5.36
--
Compound: CSc1ccc(CCc2ncc([N+](=O)[O-])n2C)cc1
Measurement Name: pIC50
Result Operator: =
Reported: 4.76
--
Compound: Cn1c([N+](=O)[O-])cnc1C(=O)N1CCS(=O)(=O)CC1
Measurement Name: pIC50
Result Operator: =
Reported: 4.91
--
Compound: CS(=O)(=O)c1ccc(OCC2Cn3cc([N+](=O)[O-])nc3O2)cc1 (stereo not given)
Measurement Name: pIC50
Result Operator: <
Reported: 4.70
--
Compound: CSc1ccc(OCc2ncc([N+](=O)[O-])n2C)cc1
Measurement Name: pIC50
Result Operator: =
Reported: 5.41
--
Compound: CSc1ccc(OCc2ncc(C#N)n2C)cc1
Measurement Name: pIC50
Result Operator: <
Reported: 4.70
--
Compound: C[S+]([O-])c1ccc(OCC2Cn3cc([N+](=O)[O-])nc3O2)cc1 (racemic)
Measurement Name: pIC50
Result Operator: <
Reported: 4.70

###

System Tested: Voltage-gated inwardly rectifying potassium channel KCNH2 (Homo sapiens, UniProt Q12809)
Sequence (Q12809 whole entry): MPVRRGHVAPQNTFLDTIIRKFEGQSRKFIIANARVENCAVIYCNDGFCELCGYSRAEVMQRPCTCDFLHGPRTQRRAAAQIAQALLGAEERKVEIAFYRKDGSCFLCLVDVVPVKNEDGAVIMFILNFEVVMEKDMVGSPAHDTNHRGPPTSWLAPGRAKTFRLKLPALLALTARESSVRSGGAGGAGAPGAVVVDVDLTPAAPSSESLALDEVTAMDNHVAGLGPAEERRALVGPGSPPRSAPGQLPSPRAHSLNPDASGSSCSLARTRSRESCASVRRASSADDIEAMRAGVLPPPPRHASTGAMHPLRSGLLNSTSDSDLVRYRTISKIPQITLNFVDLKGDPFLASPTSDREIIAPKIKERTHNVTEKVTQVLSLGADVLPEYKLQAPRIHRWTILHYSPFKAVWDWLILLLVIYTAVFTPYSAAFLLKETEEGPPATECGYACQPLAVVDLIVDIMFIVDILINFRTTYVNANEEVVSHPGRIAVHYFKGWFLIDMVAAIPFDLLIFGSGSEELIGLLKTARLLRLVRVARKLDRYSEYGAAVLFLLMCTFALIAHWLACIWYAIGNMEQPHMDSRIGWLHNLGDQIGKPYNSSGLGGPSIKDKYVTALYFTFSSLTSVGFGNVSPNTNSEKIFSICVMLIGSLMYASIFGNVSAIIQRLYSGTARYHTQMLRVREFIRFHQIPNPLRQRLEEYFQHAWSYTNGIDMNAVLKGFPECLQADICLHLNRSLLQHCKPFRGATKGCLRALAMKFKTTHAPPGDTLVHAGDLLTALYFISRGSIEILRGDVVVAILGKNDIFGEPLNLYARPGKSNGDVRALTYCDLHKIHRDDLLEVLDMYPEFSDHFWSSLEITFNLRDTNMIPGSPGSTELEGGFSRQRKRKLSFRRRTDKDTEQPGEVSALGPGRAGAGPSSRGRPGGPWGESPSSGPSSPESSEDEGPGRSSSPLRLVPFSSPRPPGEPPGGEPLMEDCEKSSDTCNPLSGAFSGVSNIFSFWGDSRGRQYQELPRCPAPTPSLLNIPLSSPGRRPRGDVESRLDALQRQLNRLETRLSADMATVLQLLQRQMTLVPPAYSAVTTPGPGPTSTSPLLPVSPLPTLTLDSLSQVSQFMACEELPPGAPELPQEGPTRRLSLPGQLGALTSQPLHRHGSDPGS
Test Description: Inhibition of human ERG stably overexpressed in HEK293 cells assessed as remaining activity at 6 uM incubated for 30 mins by FLIPR assay
Assay type: toxicity, cell-based
Run Conditions: hek293, 0.5 h, 6 µM

Molecule: C[S+]([O-])c1ccc(C(=O)Nc2ccc3c(c2)B(O)OC3(C)C)cc1 (centres undefined)
System Tested: Voltage-gated inwardly rectifying potassium channel KCNH2 (Homo sapiens, UniProt Q12809)
inhibition (INH): Not_active
--
Molecule: CSc1ccc(NC(=O)c2ncc([N+](=O)[O-])[nH]2)cc1
System Tested: Voltage-gated inwardly rectifying potassium channel KCNH2 (Homo sapiens, UniProt Q12809)
inhibition (INH): Not_active
--
Molecule: Cn1c([N+](=O)[O-])cnc1COc1ccc(S(C)(=N)=O)cc1 (centres undefined)
System Tested: Voltage-gated inwardly rectifying potassium channel KCNH2 (Homo sapiens, UniProt Q12809)
inhibition (INH): Not_active
--
Molecule: C[S+]([O-])c1ccc(OCC2Cn3cc([N+](=O)[O-])nc3O2)cc1 (racemic)
System Tested: Voltage-gated inwardly rectifying potassium channel KCNH2 (Homo sapiens, UniProt Q12809)
inhibition (INH): Not_active

###

Recorded activity at 0.5 h, 25 µM values for a group of compounds are listed next.
System Tested: hERG (KCNH2) (Homo sapiens, UniProt Q12809)
Sequence (Q12809 whole entry): as above
Test Description: Inhibition of human ERG stably overexpressed in HEK293 cells assessed as remaining activity at 25 uM incubated for 30 mins by FLIPR assay
Assay type: toxicity, cell-based
Run Conditions: HEK293 cells stably overexpressing hERG, read-out: Activity

Chemical Smiles: CSc1ccc(OCc2ncc([N+](=O)[O-])n2C)cc1
System Tested: hERG (KCNH2) (Homo sapiens, UniProt Q12809)
activity at 0.5 h, 25 µM: 34%
//
Chemical Smiles: CSc1ccc(OCc2nccn2C)cc1
System Tested: hERG (KCNH2) (Homo sapiens, UniProt Q12809)
activity at 0.5 h, 25 µM: 83%
